system: RA-8001; assay: MTS cytotoxicity assay, RA-8001; assay type: cell-based; conditions: Homo sapiens; RA-8001, MTS cell viability
pIC50: −log10 of the molar value.

Structure notation	pIC50
COc1cc(/C=C/C(=O)CC(=O)/C=C/c2ccc(O)c(OC)c2)ccc1O	4.96
